molecular target: EGFR del746-750 T790M (Homo sapiens, UniProt P00533, DEL746-750/T790M); assay: EGFR del746-750 T790M biochemical assay (Caliper mobility shift); details: 5 μM ATP, 30 min, room temperature; apparent Ki (Morrison) converted by Cheng-Prusoff, Km of ATP 2.1 μM; read-out: EGFR(T790M/d746-750) Ki
Sequence (P00533 with tags, fused parts or gaps DEL746-750/T790M limits assumed): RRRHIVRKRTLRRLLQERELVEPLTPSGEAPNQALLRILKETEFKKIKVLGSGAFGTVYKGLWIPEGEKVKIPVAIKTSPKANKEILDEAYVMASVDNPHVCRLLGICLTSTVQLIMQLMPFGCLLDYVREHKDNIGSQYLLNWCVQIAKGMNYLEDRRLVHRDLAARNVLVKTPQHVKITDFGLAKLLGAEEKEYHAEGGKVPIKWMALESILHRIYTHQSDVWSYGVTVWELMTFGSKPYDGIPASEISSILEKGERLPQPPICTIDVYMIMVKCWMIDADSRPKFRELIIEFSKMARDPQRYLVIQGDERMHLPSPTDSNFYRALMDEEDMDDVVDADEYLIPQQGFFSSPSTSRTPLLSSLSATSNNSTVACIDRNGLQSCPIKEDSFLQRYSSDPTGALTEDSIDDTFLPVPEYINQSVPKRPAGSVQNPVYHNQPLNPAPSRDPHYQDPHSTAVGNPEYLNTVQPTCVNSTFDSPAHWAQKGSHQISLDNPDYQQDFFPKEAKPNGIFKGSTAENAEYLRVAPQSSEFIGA
pKi: −log10 of the molar value. Where a name gives a salt, the structure may show the parent alone.
Reported pKi by item:
endpoint_label: pKi

{"compound": "CO[C@@]1(C)CCN(c2nccc(Nc3cc4c(cn3)nc(C)n4C(C)C)n2)C[C@H]1F", "assay_target": "EGFR del746-750 T790M (Homo sapiens, UniProt P00533, DEL746-750/T790M)", "quantitative_result": 7.01}
{"compound": "CS[C@H]1CCN(c2nccc(Nc3cc4c(cn3)nc(CO)n4C(C)C)n2)C[C@H]1F (racemic)", "assay_target": "EGFR del746-750 T790M (Homo sapiens, UniProt P00533, DEL746-750/T790M)", "quantitative_result": 6.77}
{"compound": "CS[C@H]1CCN(c2nccc(Nc3cc4c(cn3)nc(C)n4C(C)C)n2)C[C@H]1F (racemic)", "assay_target": "EGFR del746-750 T790M (Homo sapiens, UniProt P00533, DEL746-750/T790M)", "quantitative_result": 6.94}
{"compound": "COC1CCN(c2nccc(Nc3cc4c(cn3)c(C(=O)NCCO)cn4C(C)C)n2)CC1", "assay_target": "EGFR del746-750 T790M (Homo sapiens, UniProt P00533, DEL746-750/T790M)", "quantitative_result": 7.61}
{"compound": "CC(C)n1cnc2cnc(Nc3ccnc(NCC(C)(C)C(N)=O)n3)cc21", "assay_target": "EGFR del746-750 T790M (Homo sapiens, UniProt P00533, DEL746-750/T790M)", "quantitative_result": 7.68}
{"compound": "COC1CCN(c2nccc(Nc3cc4c(cn3)nc(CN(C)C)n4C(C)C)n2)CC1 [Example 9, formate salt]", "assay_target": "EGFR del746-750 T790M (Homo sapiens, UniProt P00533, DEL746-750/T790M)", "quantitative_result": 6.38}
{"compound": "CCS(=O)(=O)n1cc(-c2nccc(Nc3cc4c(cn3)c(-c3cnn(CCS(C)(=O)=O)c3)cn4C(C)C)n2)cn1", "assay_target": "EGFR del746-750 T790M (Homo sapiens, UniProt P00533, DEL746-750/T790M)", "quantitative_result": 8.85}
{"compound": "Cc1nc2cnc(Nc3ccnc(-c4cnn(S(=O)(=O)C5CCNC5)c4)n3)cc2n1C(C)C (stereo not shown)", "assay_target": "EGFR del746-750 T790M (Homo sapiens, UniProt P00533, DEL746-750/T790M)", "quantitative_result": 8.37}
{"compound": "Cc1nc2cnc(Nc3ccnc(N4CCC(F)CC4)n3)cc2n1C(C)C", "assay_target": "EGFR del746-750 T790M (Homo sapiens, UniProt P00533, DEL746-750/T790M)", "quantitative_result": 7.26}
{"compound": "Cc1cc(-c2cn(C(C)C)c3cc(Nc4ccnc(-c5cnn(S(=O)(=O)C6CC6)c5)n4)ncc23)n(CCO)n1", "assay_target": "EGFR del746-750 T790M (Homo sapiens, UniProt P00533, DEL746-750/T790M)", "quantitative_result": 8.93}
{"compound": "Cc1nc2cnc(Nc3ccnc(N4CCC5(CC4)OCCO5)n3)cc2n1C(C)C", "assay_target": "EGFR del746-750 T790M (Homo sapiens, UniProt P00533, DEL746-750/T790M)", "quantitative_result": 6.93}
{"compound": "CCNC(=O)c1cn(C(C)CC)c2cc(Nc3ccnc(N4CC[C@@H](O)[C@@H](F)C4)n3)ncc12 (single isomer, unassigned) [Example 369]", "assay_target": "EGFR del746-750 T790M (Homo sapiens, UniProt P00533, DEL746-750/T790M)", "quantitative_result": 8.26}
{"compound": "CC(C)n1c(CO)nc2cnc(Nc3ccnc(N4CCC(C)(O)CC4)n3)cc21", "assay_target": "EGFR del746-750 T790M (Homo sapiens, UniProt P00533, DEL746-750/T790M)", "quantitative_result": 6.77}
{"compound": "COC1CCN(c2nccc(Nc3cc4c(cn3)c(C(=O)NCCn3ccnc3)cn4C(C)C)n2)CC1", "assay_target": "EGFR del746-750 T790M (Homo sapiens, UniProt P00533, DEL746-750/T790M)", "quantitative_result": 8.00}
{"compound": "Cc1cc(-c2nccc(Nc3cc4c(cn3)nc(C)n4C(C)C)n2)sn1", "assay_target": "EGFR del746-750 T790M (Homo sapiens, UniProt P00533, DEL746-750/T790M)", "quantitative_result": 7.53}
{"compound": "CC(C)n1cnc2cnc(Nc3ccnc(N4CC5CC4CC5F)n3)cc21 (stereo not shown)", "assay_target": "EGFR del746-750 T790M (Homo sapiens, UniProt P00533, DEL746-750/T790M)", "quantitative_result": 7.26}
{"compound": "COC1CCN(c2nccc(Nc3cc4c(cn3)c(-c3cn[nH]c3)cn4C(C)C)n2)CC1", "assay_target": "EGFR del746-750 T790M (Homo sapiens, UniProt P00533, DEL746-750/T790M)", "quantitative_result": 8.58}
{"compound": "COC1CCN(c2nccc(Nc3cc4c(cn3)ncn4C3CCCC3)n2)CC1", "assay_target": "EGFR del746-750 T790M (Homo sapiens, UniProt P00533, DEL746-750/T790M)", "quantitative_result": 7.60}
{"compound": "CC(C)n1c(CO)nc2cnc(Nc3ccnc(N4CCC(S(C)(=O)=O)CC4)n3)cc21", "assay_target": "EGFR del746-750 T790M (Homo sapiens, UniProt P00533, DEL746-750/T790M)", "quantitative_result": 6.05}
{"compound": "CO[C@H]1CCN(c2nccc(Nc3cc4c(cn3)nc(C)n4C(C)C)n2)C[C@H]1F (racemic) [Example 608]", "assay_target": "EGFR del746-750 T790M (Homo sapiens, UniProt P00533, DEL746-750/T790M)", "quantitative_result": 7.32}
{"compound": "CCC(C)n1cc(N2CCCC2=O)c2cnc(Nc3ccnc(N4CC[C@@H](O)[C@@H](F)C4)n3)cc21 (mixture of isomers)", "assay_target": "EGFR del746-750 T790M (Homo sapiens, UniProt P00533, DEL746-750/T790M)", "quantitative_result": 8.40}
{"compound": "COC1CCN(c2nccc(Nc3cc4c(cn3)c(C(N)=O)cn4C(C)C)n2)CC1", "assay_target": "EGFR del746-750 T790M (Homo sapiens, UniProt P00533, DEL746-750/T790M)", "quantitative_result": 7.55}
{"compound": "CO[C@H]1CN(c2nccc(Nc3cc4c(cn3)nc(C)n4C(C)C)n2)CC[C@@H]1O (racemic)", "assay_target": "EGFR del746-750 T790M (Homo sapiens, UniProt P00533, DEL746-750/T790M)", "quantitative_result": 6.46}
{"compound": "Cc1nc2cnc(Nc3ccnc(N4CCCC(F)C4)n3)cc2n1C(C)C (stereo not shown)", "assay_target": "EGFR del746-750 T790M (Homo sapiens, UniProt P00533, DEL746-750/T790M)", "quantitative_result": 7.03}
{"compound": "Cc1nc2cnc(Nc3ccnc(N4CC[C@H](O)C4)n3)cc2n1C(C)C", "assay_target": "EGFR del746-750 T790M (Homo sapiens, UniProt P00533, DEL746-750/T790M)", "quantitative_result": 6.72}
{"compound": "Cc1nc2cnc(Nc3ccnc(N4CC[C@H](O)[C@H](F)C4)n3)cc2n1C(C)C (racemic)", "assay_target": "EGFR del746-750 T790M (Homo sapiens, UniProt P00533, DEL746-750/T790M)", "quantitative_result": 7.37}
{"compound": "COC1CCN(c2nccc(Nc3cc4c(cn3)nc([C@@H](C)O)n4[C@@H](C)C(F)(F)F)n2)CC1F (stereo partly shown)", "assay_target": "EGFR del746-750 T790M (Homo sapiens, UniProt P00533, DEL746-750/T790M)", "quantitative_result": 8.24}
{"compound": "COC1CCN(c2nccc(Nc3cc4c(cn3)nc(C)n4-c3ccccc3)n2)CC1", "assay_target": "EGFR del746-750 T790M (Homo sapiens, UniProt P00533, DEL746-750/T790M)", "quantitative_result": 7.52}
{"compound": "CC(C)n1cc(-c2cnn(C3COC3)c2)c2cnc(Nc3ccnc(-c4cnn(S(=O)(=O)C5CC5)c4)n3)cc21", "assay_target": "EGFR del746-750 T790M (Homo sapiens, UniProt P00533, DEL746-750/T790M)", "quantitative_result": 9.10}
{"compound": "CC(C)n1c(CO)nc2cnc(Nc3ccnc(N4CC[C@@H](O)[C@H](C)C4)n3)cc21 (racemic)", "assay_target": "EGFR del746-750 T790M (Homo sapiens, UniProt P00533, DEL746-750/T790M)", "quantitative_result": 6.69}
{"compound": "Cc1nc2cnc(Nc3ccnc(-n4ccnc4)n3)cc2n1C(C)C", "assay_target": "EGFR del746-750 T790M (Homo sapiens, UniProt P00533, DEL746-750/T790M)", "quantitative_result": 7.56}
